System: leukotriene pathway in human whole blood
Test Method Notes: Human whole blood assay (LTB4, A23187-stimulated)
Format: cell-based
Settings: human whole blood diluted 1:1 in RPMI, calcium ionophore A23187 7 μg/mL, 30 min
Experimental Endpoint: pIC50
One number for each entry, as −log10 of the molar value.

List reported pIC50 for each of these compounds:
1. Cc1ccc(COc2ccc3nc(C4CCCC[C@H]4C(=O)O)n(Cc4cccc(N5CCCCC5)c4)c3c2)nc1 (mixture of isomers) [Example 223]
2. Cc1ccc(COc2ccc3nc([C@H]4CCCC[C@H]4C(=O)O)n(Cc4cc(Br)ccc4F)c3c2)nc1 (racemic)

Marked response:
[6.49, 5.18]

List reported pIC50 for each of these compounds:
1. Cc1ccc(COc2ccc3nc(C4CCCC[C@H]4C(=O)O)n(Cc4cccc(N5CCCCC5)c4)c3c2)nc1 (mixture of isomers) [Example 224]
2. Cc1ccc(COc2ccc3nc(C4CCCC[C@H]4C(=O)O)n(Cc4cccc(C)c4)c3c2)nc1 (mixture of isomers)
3. Cc1ccc(COc2ccc3nc(C4CCCC[C@H]4C(=O)O)n(Cc4ccccc4C)c3c2)nc1 (mixture of isomers)

Marked response:
1. 5.66
2. 5.77
3. 5.74

* * *

System: human FLAP (Homo sapiens (Human), UniProt P20292)
Sequence (P20292 whole entry): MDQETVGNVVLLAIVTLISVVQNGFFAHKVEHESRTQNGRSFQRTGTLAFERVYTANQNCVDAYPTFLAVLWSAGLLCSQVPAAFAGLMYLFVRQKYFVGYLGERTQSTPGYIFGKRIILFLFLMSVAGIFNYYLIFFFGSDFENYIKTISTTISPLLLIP
Structures can show the parent of a compound that is named as a salt.
Experimental Endpoint: Ki

Example cases with answers are listed next.
CCC(CC)(Cc1nc2ccc(OCc3ccn(C)n3)cc2n1Cc1ccc(N2CCC(F)(F)C2)cc1)C(=O)O [Example 216]; ~180 nM
CCC(CC)(Cc1nc2ccc(OCc3ccn(C)n3)cc2n1Cc1cccc(-c2cnc(OC)nc2)c1)C(=O)O [Example 213]; ~940 nM
Cc1ccc(COc2ccc3nc(CC(C)(C)C(=O)O)n(Cc4cc(Br)ccc4F)c3c2)nc1 [Example 225]; ~870 nM

List reported Ki for each of these compounds:
1. Cn1ccc(COc2ccc3nc(C4CCCC[C@H]4C(=O)O)n(Cc4cccc(C#N)c4)c3c2)n1 (mixture of isomers) [Example 199]
2. Cc1ccc(COc2ccc3nc(CC(C)(C)C(=O)O)n(Cc4cccc(Br)c4)c3c2)nc1 [Example 232, trifluoroacetic acid salt]
3. Cc1ccc(COc2ccc3nc(C4[C@H](C(=O)O)C4(C)C)n(Cc4ccccc4C)c3c2)nc1 (mixture of isomers) [Example 210]

Marked response:
1: ~2500 nM; 2: ~750 nM; 3: ~1750 nM
